B1: Homeobox expressed in ES cells 1, residues 110 to 165; numbered along this chain, Q9UBX0 (parent)
chain: RPRTAFTQNQIEVLENVFRVNCYPGIDIREDLAQKLNLEEDRIQIWFQNRRAKLKR

Variants of: B1
Assay Comment: abundance fitness (aPCA) (normalised: wild type 0, dead -1); higher = more abundant; growth selection in yeast, the domain comes from the species named
Assay Setup: Homo sapiens
The label depends only on abundance fitness: 1 if it is at least -0.4, -1 if it is smaller.

Answered cases to consult:
INSERT INTO assay_data (changes, category) VALUES
  ('R29Q', 1),
  ('Q10R', -1),
  ('T7F', -1),
  ('V20R', 1),
  ('R1S', -1);

Confirm if abundance fitness reported for the variant "N9Y" is -0.4 or above.
1

# iterate: "N16P"
-1

# iterate: "T7A"
1

# iterate: "R3W"
-1

# iterate: "L32I"
1

# iterate: "G25T"
1

# iterate: "C22Y"
1

# iterate: "R3T"
1
